- PROCEDURE DETAILS: Tmax in Sprague-Dawley rat at 10 mg/kg, po measured up to 24 hrs by LC-MS/MS analysis
- Format: ADME, organism-based
- CONDITION CONTEXT: in vivo
PROPERTY NAME: Tmax (h)
Return type: number; implicit unit h.

# return recorded Tmax for input Fc1ccc(C2(Cn3cncn3)COC(c3ccc(-c4ccccc4F)cc3)=N2)cc1 (stereo unspecified)
5.33

----------
- PROCEDURE DETAILS: AUClast in Sprague-Dawley rat at 10 mg/kg, po measured after 24 hrs by LC-MS/MS analysis
- Format: ADME, organism-based
- Design: route oral, time 24 hrs, dose 10 mg/kg
- CONDITION CONTEXT: in vivo
PROPERTY NAME: AUC(0-t) at 24 h (µg·h/mL)
Just the number please, in µg·h/mL, no unit attached.

Return value of AUC(0-t) at 24 h for input Fc1ccc(C2(Cn3cncn3)COC(c3ccc(-c4ccccc4F)cc3)=N2)cc1 (stereo unspecified) , no commentary.
10.4

----------
- PROCEDURE DETAILS: Cmax in Sprague-Dawley rat at 10 mg/kg, po measured up to 24 hrs by LC-MS/MS analysis
- Assay type: ADME, organism-based
- Set-up: route oral, dose 10 mg/kg, time <=24
- CONDITION CONTEXT: in vivo
PROPERTY NAME: Cmax

Identify Cmax associated with the molecule Fc1ccc(C2(Cn3cncn3)COC(c3ccc(-c4ccccc4F)cc3)=N2)cc1 (stereo unspecified)
754 ng/mL

----------
- PROCEDURE DETAILS: Metabolic stability in human liver microsomes assessed as compound remaining at 100 uM measured after 60 mins in the absence of NADPH by LC-MS/MS analysis
- Format: ADME, Microsome
- CONDITION CONTEXT: read-out: Stabilty
PROPERTY NAME: remaining at 1 h, 100 µM (%)
Give your result in % as a bare value.

// Input: Fc1ccc(C2(Cn3cncn3)COC(c3ccc(-c4ccccc4F)cc3)=N2)cc1 (configuration not stated) . Output its remaining at 1 h, 100 µM only.
89.6

Return remaining at 1 h, 100 µM for the following compound: Fc1ccc(C2(Cn3cncn3)COC(c3ccc(-c4cccc(F)c4)cc3)=N2)cc1 (configuration not stated)
79.9

----------
- PROCEDURE DETAILS: Initial plasma concentration in Sprague-Dawley rat at 2 mg/kg, iv by LC-MS/MS analysis
- Format: ADME, organism-based
PROPERTY NAME: C0 (ng/mL)
Output spec: scalar in ng/mL, unitless text.

Indicate its recorded C0; the molecule in question is Fc1ccc(C2(Cn3cncn3)COC(c3ccc(-c4ccccc4F)cc3)=N2)cc1 (stereo unspecified)
758

----------
- PROCEDURE DETAILS: Metabolic stability in human plasma assessed as half life at 100 uM measured after 60 mins by LC-MS/MS analysis
- Type: ADME, cell-free
I'd appreciate it if you could supply half-life at 100 µM values for the items below.

For Fc1ccc(C2(Cn3cncn3)COC(c3ccc(-c4ccccc4F)cc3)=N2)cc1 (configuration not stated) , write its half-life at 100 µM.
> 4.8 h

Query half-life at 100 µM for Fc1ccc(C2(Cn3cncn3)COC(c3ccc(-c4cccc(F)c4)cc3)=N2)cc1 (configuration not stated)
> 4.8 h

----------
- PROCEDURE DETAILS: AUClast in Sprague-Dawley rat at 2 mg/kg, iv measured after 24 hrs by LC-MS/MS analysis
- Type: ADME, organism-based
- Set-up: route intravenous, dose 2 mg/kg, time 24 hrs
- CONDITION CONTEXT: in vivo
PROPERTY NAME: AUC(0-t) at 24 h
Answer with the value and then the unit.

Look up AUC(0-t) at 24 h of Fc1ccc(C2(Cn3cncn3)COC(c3ccc(-c4ccccc4F)cc3)=N2)cc1 (stereo unspecified) and report it.
2690 ng·h/mL
